- assay info: in vivo
- setup conditions: mouse, plasma, ip, 10 mg/kg
attribute measured: concentration at 1 h

(Q) Given `O=C1CN(CCCn2c(=O)c3cccn3c3ccccc32)CCN1c1ccc(Cl)cc1` , state its recorded concentration at 1 h.
(A) ~200 ng/mL

Values were extracted from patent US12630555B2.
